I'd appreciate it if you could supply growth values for the items below.
Test system: MDA-MB-231 breast
procedure_text: NCI-60 one-dose screen, 48 h (100 = growth as untreated, 0 = no growth, -100 = all killed)
run_conditions: 10 µM unless noted
About 83,000 compounds went through this panel and 20% of them were active in at least one assay; those are over-represented in the sample as a whole.
One number for each entry, in %.

Sample records with growth:
O=C1/C(=C/c2ccc(Br)cc2)COc2ccc(O)c(O)c21: -4.69
COc1ccccc1NC(=O)c1ccc(/C=C/C(=O)c2nccn2C)cc1: -27
O=C1Nc2ccccc2C2c3cccn3-c3ccccc3N12 (stereo unspecified): 47.1
Cn1cccc1/C=C1\C(=O)Nc2ccccc21: 67.4

Each of the following entries comes with a recorded value; kindly state growth for each.
1. Cc1cc(C)cc(Nc2ccc([N+](=O)[O-])c(NCCN3CCOCC3)n2)c1
2. COc1cc2cc(Oc3ccc(NC(=O)Nc4ccccc4)cc3)c(C)nc2cc1OCCN1CCCCC1
3. C=CCn1c(SCC(=O)Nc2ccc(C(=O)/C=C/c3cc(OC)c(OC)c(OC)c3)cc2)nnc1-c1cc(-c2ccc(OC)cc2)nc2ccccc12
4. O=C(NCc1ccc2c(c1)OCO2)NCC1CCCC(CNC(=O)NCc2ccc3c(c2)OCO3)C1 (stereo unspecified)
5. CCCCCCCC/C=C\CCCCCCCCOc1ccccc1CC(=O)NCC[N+]1(C)CCCCC1
6. CCCCSCC(=O)c1ccccc1
7. COc1ccc2nc(SCC(=O)Nc3ccccc3C)[nH]c2c1
8. COc1cc(C(=O)/C=C/c2c(-c3cccs3)nc3ccccn23)cc(OC)c1OC

stdout:
1. 31.2
2. 85.7
3. 76.8
4. 96.4
5. 59.8
6. 102
7. 98.6
8. 24.7

Each of the following entries comes with a recorded value; kindly state growth for each.
1. Cc1cc(N2CCCCC2)nc(N2CCN(CC(=O)Nc3ccc4c(ccn4Cc4ccccc4)c3)CC2)n1
2. CCc1ccc(CCC(=O)Nc2ncc(Cc3ccc(Cl)cc3)s2)o1
3. N#Cc1c(-c2cccc([N+](=O)[O-])c2)cc(-c2ccc(Nc3nc(Nc4ccc(F)cc4)nc(Nc4ccc(F)cc4)n3)cc2)nc1N
4. Cc1ncc(C(=O)Nc2ccc(CN3CCN(C)CC3)c(C(F)(F)F)c2)cc1C#Cc1cnc(N)c2ccncc12
5. Cc1ccc2[nH]c(-c3ccc(S(C)(=O)=O)cc3)c(/C=N/N=C(N)N)c2c1

stdout:
[64.3, 60.7, 91.9, -47.9, 67.6]

Each of the following entries comes with a recorded value; kindly state growth for each.
1. O=C(Cn1nnc([N+](=O)[O-])n1)c1ccccc1
2. O=C1Nc2ccc(F)cc2/C1=C\c1nc(-c2ccccc2F)n2ccccc12
3. CCOC(=O)C/C(=N\Nc1cc(=O)[nH]c2ccc(Cl)cc12)C(=O)OCC
4. CNCc1cccc2c1OCCOCCN(C)C(=O)CN(C)S(=O)(=O)c1ccc(cc1)-c1cnc(N)c(n1)C(=O)N2
5. CC12CCC(/C(=C/NNc3ccc([N+](=O)[O-])cc3[N+](=O)[O-])C1=O)C2(C)C (stereo unspecified)

stdout:
71.5
98.5
98.8
67.6
66.1

Each of the following entries comes with a recorded value; kindly state growth for each.
1. Cc1ccc(-c2nc(C#N)c(S(=O)(=O)NCCO)o2)cc1
2. C=C(c1ccc(C(=O)O)cn1)c1cc2c(cc1C)C(C)(C)CCC2(C)C
3. Nc1ccc([N+](=O)[O-])cc1N=C/C=C/c1ccccc1
4. O=C(Nc1ccccc1)c1sc(-c2ccccc2)cc1O
5. CN1CCN(Cc2ccc(NC(=O)c3cncc(C#Cc4cncc5[nH]ncc45)c3)cc2C(F)(F)F)CC1
6. O=C1c2cccnc2C(=O)c2c1c(C(=O)OCCCN1CCCCC1)c1ccccn21
7. CCN(CC)c1ccc(/C=N/NC(=O)c2ccc(Nc3ccnc(C(F)(F)F)c3)cc2)c(O)c1
8. Cn1ncc2ccc(-c3nc(-c4ccccc4)[nH]c3-c3n[nH]c(=O)n3C3CC3)cc21

stdout:
75.6
93.8
47.6
105
-88.2
-8.94
24.4
98

Each of the following entries comes with a recorded value; kindly state growth for each.
1. O=C(/C=C/c1ccccc1)Nc1ncc(Cc2ccccc2)s1
2. O=C(N=Nc1c(O)[nH]c2ccccc12)Nc1ccc(Cl)cc1
3. N#Cc1c(Nc2ccc(F)cc2)n[nH]c1-c1cccs1
4. O=C(Nc1ccc(F)cc1)Nc1ccccc1CNc1nc(Nc2ccc(OCCN3CCCC3)cc2)ncc1Cl

stdout:
[33.4, 102, 89.5, -30.9]

Each of the following entries comes with a recorded value; kindly state growth for each.
1. CCCCCCCCNc1cc2c3c(c1)CCCN3CCC2
2. CN1CCN(CCCOc2ccc3ncnc(Nc4ccc(Oc5cccc(F)c5)c(Cl)c4)c3c2)CC1
3. CCn1cc(C2=C(c3cn(C)c4ncccc34)C(=O)NC2=O)c2cccnc21
4. O=C(/C=C\c1ccco1)/C=C/c1ccco1
5. Cn1cc(-c2nn3cc(-c4ccccc4)nc3s2)c2ccccc21
6. CCN(CC)CCOc1nc2c3ccc(Cl)cc3nn2c2ccccc12
7. Cc1ccc(-c2csc(NC(=O)N3CCN(c4cc5c(cc4F)c(=O)c(C(=O)O)cn5C4CC4)CC3)n2)cc1

stdout:
1. 6.88
2. -65.4
3. 61.2
4. 93.4
5. 67.3
6. 21.3
7. 17.5

---

Test system: MOLT-4 leukemia
procedure_text: NCI-60 one-dose screen, 48 h (100 = growth as untreated, 0 = no growth, -100 = all killed)
run_conditions: 10 µM unless noted
About 83,000 compounds went through this panel and 20% of them were active in at least one assay; those are over-represented in the sample as a whole.
Param threshold (90%) applies to growth; output T when value >= threshold, F when value < threshold.

C=C(C)[C@@H]1CC[C@]2(CO)CC[C@]3(C)[C@H](CC[C@@H]4[C@@]5(C)CCC(NCCc6ccc(O)cc6)C(C)(C)[C@@H]5CC[C@]43C)[C@@H]12 (stereo partly specified): F
Cc1ccc(N=Nc2c(N)nn(-c3ccccc3)c2N)cc1: F
COc1ccc(C/C(C)=C(/c2ccc(OCCN3CCCCCC3)cc2)c2ccc(OC(=O)NCc3ccccc3)cc2)cc1: F
O[C@@H](c1cc(C(F)(F)F)nc2c(C(F)(F)F)cccc12)[C@H]1CCCCN1: F
O=C(CCC(=O)c1nc2ncccc2[nH]1)NN1C(=O)CSC1c1ccc(Cl)cc1 (stereo unspecified): T

stdin: Does growth meet or surpass 90% for `CCOC(=O)c1cn2ncnc(Oc3ccc(NC(=O)NC4CC4)c(F)c3)c2c1C` ?
stdout: T

stdin: # iterate: `Cc1c(Cl)cccc1C(=O)Nc1nc2c(s1)CN(C(=O)Nc1cccc(C(F)(F)F)c1)CC2`
stdout: F

stdin: # iterate: `Nc1c(C(=O)O)cc(Cl)cc1[N+](=O)[O-]`
stdout: T

stdin: # iterate: COc1ccc(C2C3=C(COC3=O)N(CCO)c3cc4c(cc32)OCCO4)cc1OC (stereo unspecified)
stdout: F

---

Tested on: RPMI-8226 leukemia
procedure_text: NCI-60 one-dose screen, 48 h
run_conditions: 10 µM unless noted
About 83,000 compounds went through this panel and 20% of them were active in at least one assay; those are over-represented in the sample as a whole. Activity calls are given as the source filed them. How the source made its calls: active means growth percent below 10; inactive means the rest.
Write down the outcome that applies. Available outcomes: active, inactive

C/C(=N\O)C(=O)NCCCCCC(=O)Nc1ccccc1: inactive

stdin: Identify the outcome logged in this assay for the molecule shown: `O=C1/C(=C/c2ccccc2[N+](=O)[O-])COc2ccc(O)cc21`
stdout: active

stdin: # iterate: `N=c1sc(Cc2cc(Cl)ccc2Cl)cn1CC(=O)c1ccccc1`
stdout: inactive

stdin: # iterate: `CC[C@@H](c1ccc2cc(OC)ccc2c1)C(C)(C)C(=O)F`
stdout: inactive

stdin: # iterate: CN(Cc1cnc2nc(N)nc(N)c2n1)c1c(Cl)cc(C(=O)NC(CCC(=O)O)C(=O)O)cc1Cl (stereo not given)
stdout: inactive

---

Tested on: A549/ATCC NSCLC
procedure_text: NCI-60 one-dose screen, 48 h
run_conditions: 10 µM unless noted
This is part of a sample that, as a whole, favours compounds with a hit. Of some 83,000 tested, about 20% had one in any assay. Active and inactive are the calls of the source. Rule for the calls: active = growth percent below 10; inactive = the rest.
Write down the outcome that applies. Available outcomes: active, inactive

Here are 6 compounds together with their reported answers.
COc1ccc2cc(-c3ccc(-c4ccc(C(=N)N)s4)s3)ccc2c1: active
CCN(CC)CCOc1ccc(Nc2ncc3cc(-c4ccc(O)cc4)c(=O)n(C)c3n2)cc1: inactive
NC(CSC(c1ccccc1)(c1ccccc1)c1ccc2c(c1)OCO2)C(=O)O (stereo not given): inactive
Cc1ccc(-c2nc(C(Cl)Cl)nc3cc(C)nn23)cc1: active
O=C1Nc2ccc(F)cc2/C1=C\c1nc(-c2ccccc2F)n2ccccc12: inactive
O=C1N[C@@H]2[C@@H](O)[C@@H](O)[C@H](O)C[C@H]2c2cc3c(c(O)c21)OCCO3: active

stdin: Identify the outcome logged in this assay for the compound shown: `FC(F)(F)c1[nH]ncc1-c1nc2c(N3CCCCC3)cc3[nH]ncc3c2c2c1CCCC2`
stdout: active

stdin: # iterate: C[Se]C(=O)CC1=C2C=C(F)C=CC2/C(=C\c2ccc(S(C)=O)cc2)C1C (stereo not given)
stdout: active

stdin: # iterate: `COc1ccc(OC)c(Nc2nnc(-c3ccc(Cl)cc3)o2)c1`
stdout: inactive

stdin: # iterate: `Clc1nn2c(Cn3cnc4c(NCc5ccccc5)ncnc43)nnc2c2ccccc12`
stdout: inactive
